- Test system: OVCAR-3 ovarian
- measurementNotes: NCI tumour cell line growth inhibition, 48 h
Examples of compounds with documented TGI follow.

Check out these entries, answers already filled in.
# compound, TGI
measured = [
    ("CC(C)C(C/C=C1/CC(CO)(COC(=O)c2ccccc2)OC1=O)C(C)C (configuration not stated)", "32.2 µM"),
    ("COC(=O)C1C=NNC1C(=O)OC (configuration not stated)", "> 100 µM"),
    ("CN(C)CC1CCCCCCCCCC(CN(C)C)C1=O (configuration not stated)", "> 40.1 µM"),
    ("N#Cc1c(O)c(N=Nc2ccc(Cl)cc2)c(=O)n2c1[nH]c1ccccc12", "80.8 µM"),
    ("Cc1ccc(C2=Nc3c(N)ncnc3NC(c3ccc4c(c3)OCO4)C2)cc1 (configuration not stated)", "6.11 µM"),
]

In the following, a different compound is considered.
Prompt line: Fill in reported TGI for this entry: CN(C)CC(C(=O)Cc1ccccc1)c1ccccc1 (configuration not stated)
Response line: 3.48 µM

----------
Examples of compounds with documented TGI follow.
- Test system: DMS 273 small cell lung
- measurementNotes: NCI tumour cell line growth inhibition, 48 h

Check out these entries, answers already filled in.
# compound, TGI
data = [
    ("COc1ccc(/C(Cl)=C(\\c2ccc(OCCN(C)C)cc2)c2ccc(OC(=O)C(C)(C)C)cc2)cc1", "17.5 µM"),
    ("COC(=O)N/N=C(/CCC(=O)Nc1ccc(C)c(C)c1)CC(=O)C(C)(C)C", "> 100 µM"),
    ("Cc1ccc(NC(=S)SCCC(=O)O)cc1", "> 100 µM"),
    ("C=C1C2CC(OC(C)=O)C3(C)C(c4ccoc4)OC(=O)[C@@H](O)[C@]13OC1C[C@H](OC(C)=O)C(C)(C)[C@H](CC(=O)OC)[C@]12C (some centres not stated)", "> 100 µM"),
    ("Cc1cc(=O)[nH]c(NNC(C#N)c2c(O)ccc3ccccc23)n1 (configuration not stated)", "18.7 µM"),
]

Prompt line: For DMS 273 small cell lung, give TGI of the listed compound: Cc1cccc(N2C(=O)C(=O)C(c3nc4ccccc4s3)/C(=N/NC(=S)NN)C2=O)c1C (configuration not stated)
Response line: > 100 µM

Prompt line: For DMS 273 small cell lung, give TGI of the listed compound: C[C@@H]1C2=CC[C@@]3(C)C(CCC3[C@H](C)[C@H]3C[C@@]4(C)O[C@@](c5cccnc5)(O3)OC4(C)C)[C@@H]2C2OC2[C@@]12CCC(=O)O2 (some centres not stated)
Response line: > 100 µM

Prompt line: For DMS 273 small cell lung, give TGI of the listed compound: `COc1ccc2c(c1)[n+]([O-])c(-c1ccc(C)cc1)c(N)[n+]2[O-]`
Response line: > 100 µM

Prompt line: For DMS 273 small cell lung, give TGI of the listed compound: COC(=O)C1C=NNC1C(=O)OC (configuration not stated)
Response line: > 100 µM

Prompt line: For DMS 273 small cell lung, give TGI of the listed compound: `CCCCOCc1cc(CN2CCN(C)CC2)c(O)c2ncccc12`
Response line: 40.2 µM

Prompt line: For DMS 273 small cell lung, give TGI of the listed compound: CCCCCCCCCCCCCCCC(=O)OCC1OC(OC)C2NP(=O)(N(CCCl)CCCl)OC1C2O (configuration not stated)
Response line: 5.09 µM

Prompt line: For DMS 273 small cell lung, give TGI of the listed compound: `O=[N+]([O-])c1ccccc1C=NC12CC3CC(CC(C3)C1)C2`
Response line: > 100 µM

Prompt line: For DMS 273 small cell lung, give TGI of the listed compound: `CCN(CC)C(=O)N1CCN(C=S)CC1`
Response line: > 100 µM

Prompt line: For DMS 273 small cell lung, give TGI of the listed compound: `O=S(=O)(c1ccccc1)n1cc(C[P+](c2ccccc2)(c2ccccc2)c2ccccc2)c2ccccc21`
Response line: 10.2 µM

Prompt line: For DMS 273 small cell lung, give TGI of the listed compound: `O=[N+]([O-])c1cc(Cl)ccc1OCc1ccccc1`
Response line: > 100 µM

Prompt line: For DMS 273 small cell lung, give TGI of the listed compound: `NCCCCC(=O)c1cccnc1`
Response line: > 100 µM
